Measured log10 vapour pressure (mmHg), listed per entry.
property_measured: log10 vapour pressure (mmHg)

{"columns": ["compound", "test_value"],
 "data": [
  ["Brc1cccc2ccccc12", -2.01],
  ["OCCOCCOCCOCCO", -4.33],
  ["CC(C)OB(OC(C)C)OC(C)C", 0.875],
  ["Clc1cccc(Cl)c1", 0.332],
  ["CC(C)=CC(C)(C)C", 1.56],
  ["C[Si](C)(C)O[Si](C)(C)C", 1.62],
  ["N#CN", -2.43],
  ["C=CC(C)(C)CC", 2.02],
  ["CC(C)N(C(=O)COc1nnc(C(F)(F)F)s1)c1ccc(F)cc1", -6.17],
  ["CCCCCCCCCCCCCCCCN", -3.88],
  ["CCC(C)O (configuration not stated)", 1.26],
  ["COC(C)(C)CCCC(C)C/C=C/C(C)=C/C(=O)OC(C)C (configuration not stated)", -4.63],
  ["CCc1ccccc1O", -0.815],
  ["O=[N+]([O-])CBr", 0.491],
  ["Clc1cc2c(oc3c(Cl)cccc32)c(Cl)c1Cl", -7.4],
  ["COc1cccc(O)c1", -1.71],
  ["CCOC(=O)c1nc(C(Cl)(Cl)Cl)n(-c2ccc(Cl)cc2Cl)n1", -8.18],
  ["Nc1nc[nH]n1", -6.36],
  ["CCC(C)C(C)CC (configuration not stated)", 1.34],
  ["C1COCO1", 1.9],
  ["CCC(=O)C(C)C", 1.26],
  ["FC(Cl)Cl", 3.13]
]}

* * *

The following compounds are listed with their measured boiling point values.

{"columns": ["compound", "boiling point / °C"],
 "data": [
  ["CCCCCC(C)N (stereo unspecified)", 142],
  ["CC(C)(Cl)Cl", 69.3],
  ["COc1ccc(C#N)cc1", 256],
  ["CCC(C)(CO)CO", 226],
  ["CCCSC(C)C", 132],
  ["O=C(Cl)C(Cl)(Cl)Cl", 118],
  ["CCCCCCCCCCCCCCCCCCC(=O)O", 300],
  ["O=C(O)C(Cl)(Cl)Cl", 196],
  ["CC(C)c1ccc(C(C)C)c(C(C)C)c1", 244],
  ["FC(F)(F)C(Cl)Cl", 27],
  ["CCOC(=O)C(CC)(CC)C(C)=O", 216],
  ["Cc1cccc2c1CCCC2C (stereo unspecified)", 239],
  ["C[Si](C)(C)c1ccccc1", 170],
  ["CCCCCCCCCCCCCCCCCCCCCCCCCCCCCCCCCCCCC", 505],
  ["C#CC(C)=O", 84],
  ["C=CCc1ccc(OC=O)c(OC)c1", 270],
  ["O=C(O)c1cnc[nH]1", 294],
  ["O=C(c1ccccc1)C(F)(F)F", 153],
  ["CC(=O)CC(C)(C)N", 180],
  ["CC(=O)C(Cl)(Cl)Cl", 149],
  ["CC=CC(=O)O", 185],
  ["CCCOC(=O)c1ccccc1C(=O)OCCC", 318],
  ["CCC(Br)CBr (stereo unspecified)", 166],
  ["Oc1ccccc1Cl", 175],
  ["O=Cc1cccc(F)c1", 173],
  ["CCCC=Cc1ccccc1", 217]
]}
